# experimental system: Cytochrome P450 2D6 (Homo sapiens, UniProt P10635)
# Sequence (P10635 whole entry): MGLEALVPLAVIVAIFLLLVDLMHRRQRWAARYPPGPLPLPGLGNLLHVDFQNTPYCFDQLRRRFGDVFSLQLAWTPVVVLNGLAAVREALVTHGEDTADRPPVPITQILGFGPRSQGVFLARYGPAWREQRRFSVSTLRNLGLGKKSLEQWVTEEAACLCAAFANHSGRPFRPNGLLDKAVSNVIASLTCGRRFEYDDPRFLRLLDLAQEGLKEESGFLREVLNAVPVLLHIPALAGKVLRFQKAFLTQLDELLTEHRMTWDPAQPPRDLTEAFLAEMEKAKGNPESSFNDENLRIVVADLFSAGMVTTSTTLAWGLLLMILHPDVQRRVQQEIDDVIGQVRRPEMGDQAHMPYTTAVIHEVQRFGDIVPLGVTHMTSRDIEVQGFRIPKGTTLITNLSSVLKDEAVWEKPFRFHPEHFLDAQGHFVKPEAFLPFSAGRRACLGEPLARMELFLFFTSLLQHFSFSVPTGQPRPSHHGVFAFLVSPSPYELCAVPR
# protocol: Inhibition of CYP2D6 in human liver microsomes using dextromethorphan as substrate incubated for 15 mins prior to NADPH addition measured after 8 mins by LC/MS/MS analysis
# Type: ADME, Microsome
pIC50: −log10 of the molar value.
endpoint name: pIC50

State, for Cytochrome P450 2D6 (Homo sapiens, UniProt P10635), measured pIC50 of the compound listed here: COc1ccc(C#Cc2ccc(C(=O)N3CCC[C@@H](O)C3)c(F)c2)cc1
< 4.52

###

# experimental system: Metabotropic glutamate receptor 2 (Rattus norvegicus)
# Sequence (P31421 whole entry): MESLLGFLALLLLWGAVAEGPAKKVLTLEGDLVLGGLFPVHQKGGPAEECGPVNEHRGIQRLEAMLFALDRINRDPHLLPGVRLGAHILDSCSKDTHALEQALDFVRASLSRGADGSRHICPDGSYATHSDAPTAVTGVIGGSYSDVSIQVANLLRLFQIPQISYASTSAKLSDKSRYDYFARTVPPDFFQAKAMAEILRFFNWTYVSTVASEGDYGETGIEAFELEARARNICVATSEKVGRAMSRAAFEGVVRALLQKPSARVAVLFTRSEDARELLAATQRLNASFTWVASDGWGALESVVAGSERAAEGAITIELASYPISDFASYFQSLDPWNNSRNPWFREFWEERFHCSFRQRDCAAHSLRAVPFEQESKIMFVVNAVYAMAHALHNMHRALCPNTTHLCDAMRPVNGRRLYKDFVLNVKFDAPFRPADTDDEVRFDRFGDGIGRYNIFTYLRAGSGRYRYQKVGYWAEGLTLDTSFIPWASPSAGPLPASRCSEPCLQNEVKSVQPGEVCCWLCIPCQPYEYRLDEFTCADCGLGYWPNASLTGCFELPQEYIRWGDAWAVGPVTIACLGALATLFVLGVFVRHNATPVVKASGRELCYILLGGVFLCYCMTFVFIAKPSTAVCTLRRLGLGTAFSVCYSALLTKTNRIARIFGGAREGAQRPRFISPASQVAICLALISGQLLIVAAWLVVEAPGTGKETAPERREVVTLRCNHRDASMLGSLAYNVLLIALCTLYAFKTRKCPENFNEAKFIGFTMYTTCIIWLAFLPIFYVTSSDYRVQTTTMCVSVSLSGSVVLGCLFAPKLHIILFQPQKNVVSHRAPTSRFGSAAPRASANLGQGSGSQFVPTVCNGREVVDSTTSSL
# protocol: Negative allosteric modulation of rat mGlu2 receptor transfected in HEK293 cells assessed as inhibition of glutamate-induced calcium mobilization after 2.5 mins
pIC50: −log10 of the molar value.
endpoint name: pIC50

Reference set (3 entries):
>>> result("COc1ccc(C#Cc2ccc(C(=O)N3CCCC(OC)C3)cc2)cc1 (stereo not given)")
"< 4.52"
>>> result("COc1ccc(C#Cc2ccc(C(=O)N3CC4CCC(=O)C4C3)cc2)cc1 (stereo not given)")
"< 4.52"
>>> result("COc1ccc(C#Cc2ccc(C(=O)N3CCC[C@@H](O)C3)cc2)cc1")
"< 4.52"

Please give pIC50 for each item listed below.
1. COc1ccc(C#Cc2ccc(C(=O)N3CCCC(O)C3)cc2)cc1 (racemic)
2. COc1ccc(C#Cc2ccc(C(=O)N3CCC[C@@H](O)C3)cc2F)cc1
3. COc1ccc(C#Cc2ccc(C(=O)N3CCCC(C)(O)C3)cc2)cc1 (stereo not given)
4. COc1ccc(C#Cc2ccc(C(=O)N3CC4CCC(O)C4C3)cc2)cc1 (stereo not given)
5. COc1ccc(C#Cc2ccc(C(=O)N3CCC[C@H](O)C3)cc2)cc1
6. COc1ccc(C#Cc2ccc(C(=O)N3CC[C@@H](O)C3)cc2)cc1
7. COc1ccc(C#Cc2ccc(C(=O)N3CC[C@H](O)C3)cc2)cc1

1. < 4.52
2. < 4.52
3. < 4.52
4. < 4.52
5. < 4.52
6. < 4.52
7. < 4.52

###

# experimental system: UniProtKB P31421
# protocol: Negative allosteric modulation of rat mGlu2 receptor transfected in HEK293 cells assessed as inhibition of glutamate-induced calcium mobilization after 2.5 mins
pIC50: −log10 of the molar value.
endpoint name: pIC50

Reference set (2 entries):
>>> result("COc1ccc(C#Cc2ccc(C(=O)N3CCC(CO)C3)cc2)cc1 (stereo not drawn)")
"< 4.52"
>>> result("COc1ccc(C#Cc2ccc(C(=O)N3CCC[C@@H](O)C3)c(F)c2)cc1")
"< 4.52"

Please turn your attention to the following entry.
Answer with the recorded pIC50 of COc1ccc(C#Cc2ccc(C(=O)NC(C)CO)cc2)cc1 (stereo not drawn) only.
< 4.52

###

For each record, write down the corresponding IC50.
# experimental system: Metabotropic glutamate receptor 3 (Rattus norvegicus)
# protocol: Negative allosteric modulation of rat mGlu3 receptor transfected in human TREX cells assessed as inhibition of glutamate-induced calcium mobilization after 2.5 mins
# Type: functional, cell-based
# reported conditions: read-out: pIC50 (converted)
Answers are plain numbers, in µM.

Reference set (5 entries):
>>> measured_number("COc1ccc(C#Cc2ccc(C(=O)N3CCC(CO)C3)cc2)cc1 (stereo not drawn)")
7.59
>>> measured_number("COc1ccc(C#Cc2ccc(C(=O)NC(C)CO)cc2)cc1 (stereo not drawn)")
7.59
>>> measured_number("COc1ccc(C#Cc2ccc(C(=O)N3CC4CCC(=O)C4C3)cc2)cc1 (stereo not drawn)")
2.75
>>> measured_number("COc1ccc(C#Cc2ccc(C(=O)N3CC4CCC(O)C4C3)cc2)cc1 (stereo not drawn)")
5.5
>>> measured_number("COc1ccc(C#Cc2ccc(C(=O)N3CC[C@@H](O)C3)cc2)cc1")
10.2

Please give IC50 for each item listed below.
1. COc1ccc(C#Cc2ccc(C(=O)N3CCCC(OC)C3)cc2)cc1 (stereo not drawn)
2. COc1ccc(C#Cc2ccc(C(=O)N3CC[C@H](O)C3)cc2)cc1
3. COc1ccc(C#Cc2ccc(C(=O)N3CCC[C@@H](O)C3)c(F)c2)cc1

1: 5.5; 2: 27.5; 3: 0.603

###

# experimental system: Cytochrome P450 2C9 (Homo sapiens)
# Sequence (P11712 whole entry): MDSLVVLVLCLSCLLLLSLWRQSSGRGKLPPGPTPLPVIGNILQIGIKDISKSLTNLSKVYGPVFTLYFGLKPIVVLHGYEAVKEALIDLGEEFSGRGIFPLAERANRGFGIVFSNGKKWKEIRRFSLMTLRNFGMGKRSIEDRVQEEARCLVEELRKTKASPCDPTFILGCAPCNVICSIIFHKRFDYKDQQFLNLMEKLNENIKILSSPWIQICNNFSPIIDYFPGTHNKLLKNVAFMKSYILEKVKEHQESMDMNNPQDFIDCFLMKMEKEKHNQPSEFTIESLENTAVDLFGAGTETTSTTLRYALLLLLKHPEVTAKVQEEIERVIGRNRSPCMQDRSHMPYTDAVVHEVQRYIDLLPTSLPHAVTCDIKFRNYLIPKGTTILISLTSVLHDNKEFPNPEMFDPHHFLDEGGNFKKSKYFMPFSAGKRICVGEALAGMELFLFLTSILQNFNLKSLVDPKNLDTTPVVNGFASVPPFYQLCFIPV
pIC50: −log10 of the molar value.
endpoint name: pIC50

Answer with the recorded pIC50 of COc1ccc(C#Cc2ccc(C(=O)N3CCC[C@@H](O)C3)c(F)c2)cc1 only.
< 4.52

###

# experimental system: Metabotropic glutamate receptor 3 (Rattus norvegicus, UniProt P31422)
# Sequence (P31422 whole entry): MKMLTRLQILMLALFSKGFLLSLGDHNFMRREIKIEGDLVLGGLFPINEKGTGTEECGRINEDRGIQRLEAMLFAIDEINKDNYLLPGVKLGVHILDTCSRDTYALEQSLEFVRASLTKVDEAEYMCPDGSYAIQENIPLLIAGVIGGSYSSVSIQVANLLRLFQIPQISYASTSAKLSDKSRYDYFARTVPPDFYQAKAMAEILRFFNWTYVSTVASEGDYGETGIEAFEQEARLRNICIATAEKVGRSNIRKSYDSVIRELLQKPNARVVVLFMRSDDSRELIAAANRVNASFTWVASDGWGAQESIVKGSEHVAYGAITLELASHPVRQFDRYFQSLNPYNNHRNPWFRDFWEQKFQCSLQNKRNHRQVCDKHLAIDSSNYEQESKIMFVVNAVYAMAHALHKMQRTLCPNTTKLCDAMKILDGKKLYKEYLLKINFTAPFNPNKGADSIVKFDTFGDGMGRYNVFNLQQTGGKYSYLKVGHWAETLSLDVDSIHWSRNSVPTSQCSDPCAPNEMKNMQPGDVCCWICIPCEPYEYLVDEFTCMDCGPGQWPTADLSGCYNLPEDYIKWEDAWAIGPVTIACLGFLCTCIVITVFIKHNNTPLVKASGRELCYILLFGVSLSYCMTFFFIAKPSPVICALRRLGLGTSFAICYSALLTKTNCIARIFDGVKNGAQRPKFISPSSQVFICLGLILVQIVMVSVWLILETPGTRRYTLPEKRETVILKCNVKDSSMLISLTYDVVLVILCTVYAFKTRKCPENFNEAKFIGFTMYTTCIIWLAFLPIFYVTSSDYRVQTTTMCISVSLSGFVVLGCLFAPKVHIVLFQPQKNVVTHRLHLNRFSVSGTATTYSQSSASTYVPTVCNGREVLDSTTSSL
# protocol: Negative allosteric modulation of rat mGlu3 receptor transfected in human TREX cells assessed as inhibition of glutamate-induced calcium mobilization after 2.5 mins
# Format: functional, cell-based
# reported conditions: read-out: IC50
endpoint name: IC50

>>> result("COc1ccc(C#Cc2ccc(C(=O)N3CCC[C@@H](CO)C3)cc2)c(F)c1F")
"> 10000 nM"
>>> result("O=C(c1ccc(C#Cc2ccc3c(c2)OCCO3)cc1)N1CCC[C@@H](CO)C1")
"> 10000 nM"
>>> result("COc1ccc(C#Cc2ccc(C(=O)N3CCC[C@@H](O)C3)c(F)c2)cc1")
"593 nM"

Please give IC50 for each item listed below.
1. COc1ccc(C#Cc2ccc(C(=O)N3CCCC(O)C3)cc2)cc1 (racemic)
2. [2H]C([2H])([2H])Oc1ccc(C#Cc2ccc(C(=O)N3CCC[C@@H](O)C3)cc2)cc1

1. 760 nM
2. 310 nM

Please give IC50 for each item listed below.
1. O=C(c1ccc(C#Cc2ccc3c(c2)OCO3)cc1)N1CCC[C@@H](CO)C1
2. O=C(c1ccc(C#Cc2ccc(OC(F)(F)F)cc2)cc1)N1CCC[C@@H](CO)C1
3. COc1ccc(C#Cc2ccc(C(=O)N3CCC[C@H](O)C3)cc2)cc1

> 10000 nM
> 10000 nM
1100 nM

###

# experimental system: Metabotropic glutamate receptor 3 (Rattus norvegicus)
# protocol: Negative allosteric modulation of rat mGlu3 receptor transfected in human TREX cells assessed as inhibition of glutamate-induced calcium mobilization after 2.5 mins
# Type: functional, cell-based
# reported conditions: read-out: IC50
endpoint name: IC50

Reference set (2 entries):
>>> result("[2H]C([2H])([2H])Oc1ccc(C#Cc2ccc(C(=O)N3CCC[C@@H](O)C3)c(F)c2)cc1")
"0.45 µM"
>>> result("CC(C)Oc1ccc(C#Cc2ccc(C(=O)N3CCC[C@@H](CO)C3)cc2)cc1")
"> 10 µM"

Please give IC50 for each item listed below.
1. COc1ccc(C#Cc2ccc(C(=O)N3CCC[C@@H](CO)C3)cc2)cc1
2. COc1ccc(C#Cc2ccc(C(=O)N3CCC[C@@H](CO)C3)cc2)cc1F
3. COc1ccc(C#Cc2ccc(C(=O)N3CCC[C@@H](CO)C3)cc2)c(F)c1
4. CCOc1ccc(C#Cc2ccc(C(=O)N3CCC[C@@H](CO)C3)cc2)cc1
5. COc1ccc(-c2nnc(-c3ccc(C(=O)N4CCC[C@@H](CO)C4)cc3)o2)cc1
6. COc1ccc(C#Cc2ccc(C(=O)N3CCCC(C)(O)C3)cc2)cc1 (centres undefined)

["> 10 µM", "> 10 µM", "> 10 µM", "> 10 µM", "> 10 µM", "0.711 µM"]

Please give IC50 for each item listed below.
1. CSc1ccc(C#Cc2ccc(C(=O)N3CCC[C@@H](CO)C3)cc2)cc1
2. COc1ccc(C#Cc2ccc(C(=O)N3CCC[C@@H](O)C3)cc2)cc1
3. O=C(c1ccc(C#Cc2ccc(O)cc2)cc1)N1CCC[C@@H](CO)C1
4. COc1ccc(C#Cc2ccc(C(=O)N3CCC[C@@H](CO)C3)cc2)cn1
5. O=C(c1ccc(C#Cc2ccc(Oc3ccccc3)cc2)cc1)N1CCC[C@@H](CO)C1

["> 10 µM", "0.65 µM", "> 10 µM", "> 10 µM", "> 10 µM"]

State, for Metabotropic glutamate receptor 3 (Rattus norvegicus), measured IC50 of the compound listed here: COc1ccc(C#Cc2ccc(C(=O)N3CCC[C@@H](O)C3)cc2F)cc1
0.456 µM

Where do the numbers come from? From ChEMBL document CHEMBL2384940.
